Target: ATM (Homo sapiens (Human))
Sequence (Q13315 whole entry): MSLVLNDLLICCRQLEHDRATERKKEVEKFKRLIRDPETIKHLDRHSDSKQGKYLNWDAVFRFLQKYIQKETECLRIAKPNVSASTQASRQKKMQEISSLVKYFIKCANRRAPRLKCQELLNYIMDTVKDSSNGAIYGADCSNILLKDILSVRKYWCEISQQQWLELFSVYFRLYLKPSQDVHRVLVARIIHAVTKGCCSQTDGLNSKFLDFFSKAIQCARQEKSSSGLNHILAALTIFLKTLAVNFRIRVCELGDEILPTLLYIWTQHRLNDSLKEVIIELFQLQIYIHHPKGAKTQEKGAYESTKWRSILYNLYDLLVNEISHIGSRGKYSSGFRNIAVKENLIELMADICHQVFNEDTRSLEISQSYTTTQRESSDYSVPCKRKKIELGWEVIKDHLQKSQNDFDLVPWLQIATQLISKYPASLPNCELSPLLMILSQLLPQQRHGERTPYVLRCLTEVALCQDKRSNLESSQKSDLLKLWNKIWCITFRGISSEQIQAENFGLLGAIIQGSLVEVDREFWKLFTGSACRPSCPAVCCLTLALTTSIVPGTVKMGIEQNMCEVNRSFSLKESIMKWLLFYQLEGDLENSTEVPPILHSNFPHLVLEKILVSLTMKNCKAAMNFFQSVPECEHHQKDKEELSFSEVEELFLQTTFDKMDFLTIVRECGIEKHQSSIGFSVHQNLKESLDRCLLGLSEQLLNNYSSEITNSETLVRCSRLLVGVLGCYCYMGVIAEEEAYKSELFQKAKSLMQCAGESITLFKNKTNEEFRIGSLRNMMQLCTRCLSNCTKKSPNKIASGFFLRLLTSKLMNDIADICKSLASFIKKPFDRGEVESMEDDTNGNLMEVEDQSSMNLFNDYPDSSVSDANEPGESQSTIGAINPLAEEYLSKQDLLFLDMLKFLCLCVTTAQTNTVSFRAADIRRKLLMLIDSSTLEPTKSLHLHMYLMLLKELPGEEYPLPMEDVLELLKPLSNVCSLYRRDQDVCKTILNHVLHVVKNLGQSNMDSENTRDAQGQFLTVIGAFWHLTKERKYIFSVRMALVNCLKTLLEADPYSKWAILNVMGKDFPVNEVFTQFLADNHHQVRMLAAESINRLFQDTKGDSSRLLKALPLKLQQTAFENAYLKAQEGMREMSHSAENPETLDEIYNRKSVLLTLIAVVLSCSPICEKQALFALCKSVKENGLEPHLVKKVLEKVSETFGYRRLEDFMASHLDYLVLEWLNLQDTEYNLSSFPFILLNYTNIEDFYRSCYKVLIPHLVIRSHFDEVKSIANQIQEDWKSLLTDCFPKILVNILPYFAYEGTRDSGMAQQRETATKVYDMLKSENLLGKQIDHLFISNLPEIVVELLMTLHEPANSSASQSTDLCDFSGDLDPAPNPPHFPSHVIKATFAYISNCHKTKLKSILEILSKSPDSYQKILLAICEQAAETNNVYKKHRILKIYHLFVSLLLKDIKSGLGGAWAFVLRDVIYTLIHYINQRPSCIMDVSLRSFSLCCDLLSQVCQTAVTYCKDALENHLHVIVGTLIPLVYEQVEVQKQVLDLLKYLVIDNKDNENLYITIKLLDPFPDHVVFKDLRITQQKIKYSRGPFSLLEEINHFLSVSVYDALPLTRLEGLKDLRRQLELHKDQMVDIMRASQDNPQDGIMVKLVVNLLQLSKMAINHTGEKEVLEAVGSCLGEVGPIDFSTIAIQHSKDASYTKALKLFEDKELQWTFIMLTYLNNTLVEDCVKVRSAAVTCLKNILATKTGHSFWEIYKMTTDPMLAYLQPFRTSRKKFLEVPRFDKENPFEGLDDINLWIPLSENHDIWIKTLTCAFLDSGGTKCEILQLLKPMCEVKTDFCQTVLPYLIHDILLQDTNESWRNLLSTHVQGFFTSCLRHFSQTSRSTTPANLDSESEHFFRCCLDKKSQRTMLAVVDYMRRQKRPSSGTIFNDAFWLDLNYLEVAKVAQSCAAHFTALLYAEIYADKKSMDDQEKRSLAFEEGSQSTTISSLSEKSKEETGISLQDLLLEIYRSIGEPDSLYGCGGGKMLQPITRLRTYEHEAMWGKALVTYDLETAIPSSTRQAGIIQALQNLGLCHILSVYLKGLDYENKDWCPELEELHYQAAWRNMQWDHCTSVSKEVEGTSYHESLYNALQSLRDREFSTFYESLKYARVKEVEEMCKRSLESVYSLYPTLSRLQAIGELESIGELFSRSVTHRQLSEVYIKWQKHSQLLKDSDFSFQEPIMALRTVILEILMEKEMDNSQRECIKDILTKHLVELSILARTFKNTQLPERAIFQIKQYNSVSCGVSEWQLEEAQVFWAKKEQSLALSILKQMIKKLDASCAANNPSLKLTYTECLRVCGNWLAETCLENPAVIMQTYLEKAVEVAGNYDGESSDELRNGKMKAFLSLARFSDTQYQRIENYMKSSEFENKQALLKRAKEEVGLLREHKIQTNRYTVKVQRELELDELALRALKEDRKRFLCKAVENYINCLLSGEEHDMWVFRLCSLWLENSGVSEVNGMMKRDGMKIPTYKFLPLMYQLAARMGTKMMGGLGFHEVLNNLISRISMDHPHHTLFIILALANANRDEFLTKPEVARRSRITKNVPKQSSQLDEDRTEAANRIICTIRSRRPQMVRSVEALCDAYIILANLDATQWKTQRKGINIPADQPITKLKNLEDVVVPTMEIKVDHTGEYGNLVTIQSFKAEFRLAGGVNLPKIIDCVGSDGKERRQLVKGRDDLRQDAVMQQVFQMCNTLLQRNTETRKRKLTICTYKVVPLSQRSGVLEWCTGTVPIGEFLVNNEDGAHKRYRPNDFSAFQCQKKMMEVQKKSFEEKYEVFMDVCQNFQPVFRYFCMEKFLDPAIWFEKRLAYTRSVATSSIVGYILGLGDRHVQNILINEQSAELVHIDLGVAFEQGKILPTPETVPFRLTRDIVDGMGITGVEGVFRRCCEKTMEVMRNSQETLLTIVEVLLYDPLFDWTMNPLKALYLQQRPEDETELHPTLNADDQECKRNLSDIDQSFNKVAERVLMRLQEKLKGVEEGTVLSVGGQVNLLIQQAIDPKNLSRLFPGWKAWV
Experiment: ATM in Cell Western Assay (pKAP1 in etoposide-treated MCF-7 cells)
Type: cell-based
Settings: MCF-7 cells, etoposide 100 μM, 1 hr, pKAP1 readout
pIC50: −log10 of the molar value. Structures can show the parent of a compound that is named as a salt.
Recorded pIC50, one value per entry.
QUANTITY_NAME: pIC50

>  <COMPOUND>
CN(C)CCCOc1ncc(-c2ccc3ncc4c(c3c2)C2(CCC2)C(=O)N4C)cc1NS(=O)(=O)N(C)C [Example 149, hydrochloride]

>  <MEAS_VALUE>
> 9.30

$$$$
>  <COMPOUND>
Cc1ccc(S(=O)(=O)Nc2cc(-c3ccc4ncc5c(c4c3)C3(CCC3)C(=O)N5C)cnc2OCCCN2CCCCC2)cn1 [Example 142, hydrochloride]

>  <MEAS_VALUE>
7.00 to 9.00

$$$$
>  <COMPOUND>
CN1C(=O)C2(CCC2)c2c1cnc1cc(F)c(-c3cnc(N4CC(N(C)C)C4)c(NS(=O)(=O)c4ccccc4)c3)cc21 [Example 324, hydrochloride]

>  <MEAS_VALUE>
7.00 to 9.00

$$$$
>  <COMPOUND>
CN1C(=O)C2(CCC2)c2c1cnc1ccc(-c3cnc(OCCCO)c(NS(C)(=O)=O)c3)cc21

>  <MEAS_VALUE>
< 7.00

$$$$
>  <COMPOUND>
CN(C)CCCOc1ncc(-c2ccc3ncc4c(c3c2)C2(CC2)C(=O)N4C)cc1NS(=O)(=O)c1ccn(C)n1

>  <MEAS_VALUE>
7.00 to 9.00

$$$$
>  <COMPOUND>
CN(C)CCCOc1ncc(-c2ccc3ncc4c(c3c2)C2(CCC2)C(=O)N4C)cc1NS(=O)(=O)c1cc[nH]c(=O)c1

>  <MEAS_VALUE>
7.00 to 9.00

$$$$
>  <COMPOUND>
CN(C)CCCOc1ncc(-c2ccc3ncc4c(c3c2)C2(CCC2)C(=O)N4C)cc1S(N)(=O)=O

>  <MEAS_VALUE>
7.00 to 9.00

$$$$
>  <COMPOUND>
Cc1ccc(S(=O)(=O)Nc2cc(-c3ccc4ncc5c(c4c3)C3(CCC3)C(=O)N5C)cnc2N2CCC(N(C)C)CC2)cn1 [Example 185, hydrochloride]

>  <MEAS_VALUE>
7.00 to 9.00

$$$$
>  <COMPOUND>
CN(C)CCCOc1ncc(-c2cc3c4c(cnc3cc2F)N(C)C(=O)C42CC2)cc1NS(=O)(=O)c1ccccc1

>  <MEAS_VALUE>
7.00 to 9.00

$$$$
>  <COMPOUND>
CN(C)CCCOc1ncc(-c2cc3c4c(cnc3cc2F)N(C)C(=O)C42CCC2)cc1NS(=O)(=O)N(C)C [Example 290, hydrochloride]

>  <MEAS_VALUE>
7.00 to 9.00

$$$$
>  <COMPOUND>
CN1C(=O)C2(CCC2)c2c1cnc1ccc(-c3cnc(OCCCN4CCOCC4)c(NS(=O)(=O)c4ccccc4)c3)cc21 [Example 131, hydrochloride]

>  <MEAS_VALUE>
7.00 to 9.00

$$$$
>  <COMPOUND>
CN(C)c1ccc(-c2ncc(-c3ccc4ncc5c(c4c3)C3(CCC3)C(=O)N5C)cc2NS(C)(=O)=O)cn1

>  <MEAS_VALUE>
7.00 to 9.00

$$$$
>  <COMPOUND>
CN(C)CCCOc1ncc(-c2ccc3ncc4c(c3c2)C2(CCC2)C(=O)N4C)cc1NS(=O)(=O)c1cncc(Cl)c1 [Example 130, hydrochloride]

>  <MEAS_VALUE>
7.00 to 9.00

$$$$
>  <COMPOUND>
CCN(C)S(=O)(=O)Nc1cc(-c2ccc3ncc4c(c3c2)C2(CCC2)C(=O)N4C)cnc1N1CCC(N2CCCCC2)CC1

>  <MEAS_VALUE>
7.00 to 9.00

$$$$
>  <COMPOUND>
CN1C(=O)C2(CC2)c2c1cnc1ccc(-c3cnc(N4CCC(N(C)C)CC4)c(NS(=O)(=O)C4CC4)c3)cc21

>  <MEAS_VALUE>
> 9.30

$$$$
>  <COMPOUND>
CN(C)CCCOc1ncc(-c2ccc3ncc4c(c3c2)C2(CCC2)C(=O)N4C)cc1NS(=O)(=O)c1cc(F)cc(C(F)(F)F)c1 [Example 156, hydrochloride]

>  <MEAS_VALUE>
7.00 to 9.00

$$$$
>  <COMPOUND>
CN(C)CCCOc1ncc(-c2ccc3ncc4c(c3c2)C2(CCC2)C(=O)N4C)cc1NS(=O)(=O)CCN1C(=O)c2ccccc2C1=O

>  <MEAS_VALUE>
7.00 to 9.00

$$$$
>  <COMPOUND>
CN1C(=O)C2(CC2)c2c1cnc1ccc(-c3cnc4ncccc4c3)cc21

>  <MEAS_VALUE>
7.00 to 9.00

$$$$
>  <COMPOUND>
CNC1CN(c2ncc(-c3ccc4ncc5c(c4c3)C3(CCC3)C(=O)N5C)cc2NS(C)(=O)=O)C1 [Example 329, formate]

>  <MEAS_VALUE>
7.00 to 9.00

$$$$
>  <COMPOUND>
CN1C(=O)C2(CC2)c2c1cnc1ccc(-c3cnc(OC4CC(N(C)C)C4)c(NS(=O)(=O)c4ccccc4)c3)cc21 (centres unmarked)

>  <MEAS_VALUE>
7.00 to 9.00

$$$$
>  <COMPOUND>
CN(C)CCOc1ncc(-c2ccc3ncc4c(c3c2)C2(CCCC2)C(=O)N4C)cc1NS(=O)(=O)c1ccccc1

>  <MEAS_VALUE>
7.00 to 9.00

$$$$
>  <COMPOUND>
CN(C)CCCOc1ncc(-c2ccc3ncc4c(c3c2)C2(CC2)C(=O)N4C)cc1NS(=O)(=O)c1cccs1

>  <MEAS_VALUE>
9.00 to 9.30

$$$$
>  <COMPOUND>
CN(C)CCCNc1ncc(-c2ccc3ncc4c(c3c2)C2(CC2)C(=O)N4C)cn1

>  <MEAS_VALUE>
7.00 to 9.00

$$$$
>  <COMPOUND>
CNCCOc1ncc(-c2ccc3ncc4c(c3c2)C2(CC2)C(=O)N4C)cc1NS(=O)(=O)c1ccccc1

>  <MEAS_VALUE>
7.00 to 9.00

$$$$
>  <COMPOUND>
CN1CC=C(c2ncc(-c3ccc4ncc5c(c4c3)C3(CCC3)C(=O)N5C)cc2NS(C)(=O)=O)CC1

>  <MEAS_VALUE>
7.00 to 9.00

$$$$
>  <COMPOUND>
[2H]C([2H])(COc1ncc(-c2ccc3ncc4c(c3c2)C2(CCC2)C(=O)N4C)cc1NS(=O)(=O)c1ccc(C)nc1)CN1CCCCC1

>  <MEAS_VALUE>
< 7.00

$$$$

---

Biological target: UniProt:Q13315
Assay: ATM in Cell Western Assay (pKAP1 in etoposide-treated MCF-7 cells)
Type: cell-based
Conditions: MCF-7 cells, etoposide 100 μM, 1 hr, pKAP1 readout
pIC50: −log10 of the molar value. Where a name gives a salt, the structure may show the parent alone.
Reported values of pIC50 for individual entries

>  <MOLECULE>
CN1CCN(c2ncc(-c3ccc4ncc5c(c4c3)C3(CCC3)C(=O)N5C)cc2NS(=O)(=O)C2CC2)CC1 [Example 227, hydrochloride]

>  <ASSAY_SYSTEM>
UniProt:Q13315

>  <pIC50>
9.00 to 9.30

$$$$
>  <MOLECULE>
CC1CCCN1S(=O)(=O)Nc1cc(-c2ccc3ncc4c(c3c2)C2(CCC2)C(=O)N4C)cnc1OCCCN(C)C (stereo not shown)

>  <ASSAY_SYSTEM>
UniProt:Q13315

>  <pIC50>
7.00 to 9.00

$$$$
>  <MOLECULE>
COC1CCN(CCCOc2ncc(-c3ccc4ncc5c(c4c3)C3(CCC3)C(=O)N5C)cc2NS(C)(=O)=O)C1 (stereo not shown)

>  <ASSAY_SYSTEM>
UniProt:Q13315

>  <pIC50>
7.00 to 9.00

$$$$
>  <MOLECULE>
CN(C)CCCOc1ncc(-c2ccc3ncc4c(c3c2)C2(CCC2)C(=O)N4C)cc1NS(=O)(=O)CCN

>  <ASSAY_SYSTEM>
UniProt:Q13315

>  <pIC50>
7.00 to 9.00

$$$$
>  <MOLECULE>
CN(C)CCCOc1ncc(-c2ccc3ncc4c(c3c2)C2(CCCCC2)C(=O)N4C)cc1NS(=O)(=O)c1ccccc1

>  <ASSAY_SYSTEM>
UniProt:Q13315

>  <pIC50>
7.00 to 9.00

$$$$
>  <MOLECULE>
CN1C(=O)C2(CC2)c2c1cnc1ccc(-c3cncnc3)cc21

>  <ASSAY_SYSTEM>
UniProt:Q13315

>  <pIC50>
< 7.00

$$$$
>  <MOLECULE>
CN1C(=O)C2(CCC2)c2c1cnc1ccc(-c3cnc(OCCCN4CCCCC4)c(NS(=O)(=O)c4cccnc4)c3)cc21

>  <ASSAY_SYSTEM>
UniProt:Q13315

>  <pIC50>
7.00 to 9.00

$$$$
